Entries and their IC50
molecular target: Renin (Homo sapiens, UniProt P00797); experiment: Inhibitory activity against purified recombinant human renin
Sequence (P00797 whole entry): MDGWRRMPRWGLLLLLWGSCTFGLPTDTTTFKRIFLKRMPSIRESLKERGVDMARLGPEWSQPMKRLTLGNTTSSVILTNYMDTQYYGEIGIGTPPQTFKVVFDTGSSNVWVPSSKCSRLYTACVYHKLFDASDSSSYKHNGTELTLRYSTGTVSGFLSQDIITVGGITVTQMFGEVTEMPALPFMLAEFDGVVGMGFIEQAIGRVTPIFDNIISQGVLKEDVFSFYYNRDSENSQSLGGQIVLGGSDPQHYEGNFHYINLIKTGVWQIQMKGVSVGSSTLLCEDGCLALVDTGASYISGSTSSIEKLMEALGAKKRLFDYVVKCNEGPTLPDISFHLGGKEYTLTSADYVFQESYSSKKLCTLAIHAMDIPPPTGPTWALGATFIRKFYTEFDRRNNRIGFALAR
measurement kind: IC50 (nM)

[[record]]
compound = "c1ccc(COCCCOc2ccc([C@H]3[C@H](Cn4cncn4)CNC[C@@H]3OCc3ccc4ccccc4c3)cc2)cc1 (racemic)"
measurement_kind = "IC50"
observed_value = 0.92

[[record]]
compound = "c1ccc(COCCCOc2ccc([C@H]3CCNC[C@@H]3OCc3ccc4c(c3)NCCC4)cc2)cc1 (racemic)"
measurement_kind = "IC50"
observed_value = 5.1

[[record]]
compound = "COc1ccccc1COCCCOc1ccc([C@H]2CCNC[C@@H]2OCc2cc(OC)c3ccccc3c2OC)cn1 (racemic)"
measurement_kind = "IC50"
observed_value = 0.5

[[record]]
compound = "O[C@@H]1CNC[C@H](OCc2ccc3ccccc3c2)[C@H]1c1ccc(OCCCOCc2ccccc2)cc1 (racemic)"
measurement_kind = "IC50"
observed_value = 6.4

[[record]]
compound = "c1ccc(COCCCOc2ccc([C@H]3[C@H](CSc4ccncc4)CNC[C@@H]3OCc3ccc4ccccc4c3)cc2)cc1 (racemic)"
measurement_kind = "IC50"
observed_value = 0.4

[[record]]
compound = "c1ccc(COCCCOc2ccc([C@H]3CCNC[C@@H]3OCc3ccc4ccccc4c3)cn2)cc1 (racemic)"
measurement_kind = "IC50"
observed_value = 590

[[record]]
compound = "COc1ccccc1COCCCOc1ccc([C@H]2CCNC[C@@H]2OCc2ccc3cccnc3c2)cc1 (racemic)"
measurement_kind = "IC50"
observed_value = 4

[[record]]
compound = "c1ccc(COCCCOc2ncc([C@H]3CCNC[C@@H]3OCc3ccc4ccccc4c3)cn2)cc1 (racemic)"
measurement_kind = "IC50"
observed_value = 820

[[record]]
compound = "c1ccc(COCCCOc2ccc([C@@H]3[C@@H](OCc4ccc5ccccc5c4)CNC[C@H]3OCCN3CCOCC3)cc2)cc1 (racemic)"
measurement_kind = "IC50"
observed_value = 1.8

